Entry source: paper PMC5575474

# assayed_system: human TLE1 443-770 (TLE1 WD40 domain) (Homo sapiens, UniProt Q04724)
# Construct: the TLE1 WD40 domain (TLE1 residues 443–770); His6 (N, cleaved yes); made in house; host or cells: Sf9 insect cells (baculovirus, pFastBacHTb)
# Sequence (Q04724 443-770): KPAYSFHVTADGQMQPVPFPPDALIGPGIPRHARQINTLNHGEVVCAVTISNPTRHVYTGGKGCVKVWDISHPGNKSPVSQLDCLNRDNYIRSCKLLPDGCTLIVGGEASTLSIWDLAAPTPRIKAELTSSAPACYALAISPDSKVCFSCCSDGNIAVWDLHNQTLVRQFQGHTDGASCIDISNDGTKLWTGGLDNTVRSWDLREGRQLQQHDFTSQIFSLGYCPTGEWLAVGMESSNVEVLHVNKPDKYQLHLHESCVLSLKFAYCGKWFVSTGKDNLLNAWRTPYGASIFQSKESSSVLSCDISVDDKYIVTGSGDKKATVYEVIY
# protocol_summary: Isothermal titration calorimetry (ITC), peptide–TLE1 binding
# assay_setup: second binding event, two-site independent binding model; 25 °C, 50 mM Hepes pH7.5, 250 mM NaCl, 1 mM TCEP, 0.05% Tween 20; MWRPW n=1 (TLE1 40 μM, peptide 420 μM); FWRPW n=2 (TLE1 30/24 μM, peptide 240/180 μM); 18 n=2 (TLE1 30 μM, peptide 200/180 μM); read-out: Kd2
property_name: Kd (nM)
// return numeric value only (unit: nM, not printed)

Problem: Indicate its recorded Kd; the molecule in question is `N=C(N)NCCC[C@@H]1NC(=O)[C@@H](NC(=O)[C@@H](N)Cc2ccccc2)Cc2cn(c3ccccc23)CCCC[C@@]2(C(=O)N[C@@H](Cc3c[nH]c4ccccc34)C(=O)O)CCCN2C1=O`
Result: 522
